Sourced from PubChem BioAssay AID2060487

Test system: 997537-175-T-J1-PDC complex spheroid viability
Assay: Anticancer human tumor 997537-175-T-J1-PDC patient-derived colon adenocarcinoma cell line growth inhibition [GQUAD]
Settings: second compound 0.1 µM; first compound 0.1 µM; active compounds read low
Response field label: string, one of Met (viability, T/C strictly below 80%) or Not met.

Problem: Is viability, T/C of CC(=O)O[C@H]1C(=O)[C@@]2(C)[C@H]([C@H](OC(=O)c3ccccc3)[C@]3(O)C[C@H](OC(=O)[C@H](O)[C@@H](NC(=O)c4ccccc4)c4ccccc4)C(C)=C1C3(C)C)[C@]1(OC(C)=O)CO[C@@H]1C[C@@H]2O + Cc1cnc(CNC(=O)c2c(=O)c3ccc(N4CCCN(C)CC4)nc3n3c2sc2ccccc23)cn1 strictly below 80%?
Result: Met

---

Tested on: 997537-175-T-J1-PDC complex spheroid viability
Assay: Anticancer human tumor 997537-175-T-J1-PDC cell line growth inhibition [GQUAD];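 also: spheroids exposed to the agents for 7 days; 100% = DMSO vehicle control viability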
Settings: second compound 0.0316 µM; first compound 0.0999 µM; active compounds read low
Items are presented alongside their recorded viability, T/C.
Express it in %; write the number only.

Use the examples below as a reference point.
INSERT INTO assay_data (compound, value_kind, unit_info, reading) VALUES
  ('CCc1c2c(nc3ccc(O)cc13)-c1cc3c(c(=O)n1C2)COC(=O)[C@]3(O)CC + Cc1[nH]c2ccc(F)cc2c1-c1nc2c3cccnc3c3ncccc3c2[nH]1', 'viability, T/C', '%', 7.8),
  ('CC[C@@]1(O)C(=O)OCc2c1cc1n(c2=O)Cc2cc3c(CN(C)C)c(O)ccc3nc2-1 + Cc1cnc(CNC(=O)c2c(=O)c3ccc(N4CCCN(C)CC4)nc3n3c2sc2ccccc23)cn1', 'viability, T/C', '%', 72.3),
  ('Cn1ncnc1[C@H]1c2n[nH]c(=O)c3cc(F)cc(c23)N[C@@H]1c1ccc(F)cc1 + Cc1[nH]c2ccc(F)cc2c1-c1nc2c3cccnc3c3ncccc3c2[nH]1', 'viability, T/C', '%', 82.5),
  ('Cc1[nH]c2ccccc2c1CCNCc1ccc(/C=C/C(=O)NO)cc1 + Cc1[nH]c2ccc(F)cc2c1-c1nc2c3cccnc3c3ncccc3c2[nH]1', 'viability, T/C', '%', 88.8),
  ('Cn1ncnc1[C@H]1c2n[nH]c(=O)c3cc(F)cc(c23)N[C@@H]1c1ccc(F)cc1 + CN(C)c1ccc(Nc2c3ccc(NC(=O)CCN4CCCC4)cc3nc3cc(NC(=O)CCN4CCCC4)ccc23)cc1', 'viability, T/C', '%', 81.1);

Problem: Notebook: pull reported viability, T/C for 997537-175-T-J1-PDC complex spheroid viability, entry CC[C@@]1(O)C(=O)OCc2c1cc1n(c2=O)Cc2cc3c(CN(C)C)c(O)ccc3nc2-1 + Cc1[nH]c2ccc(F)cc2c1-c1nc2c3cccnc3c3ncccc3c2[nH]1
Result: 90.6

Problem: Item CCc1c2c(nc3ccc(O)cc13)-c1cc3c(c(=O)n1C2)COC(=O)[C@]3(O)CC + Cc1cnc(CNC(=O)c2c(=O)c3ccc(N4CCCN(C)CC4)nc3n3c2sc2ccccc23)cn1 with 997537-175-T-J1-PDC complex spheroid viability - viability, T/C?
Result: 6.2

---

Measured viability, T/C accompanies every entry in the list below.
System: 997537-175-T-J1-PDC complex spheroid viability
Assay: Anticancer human tumor 997537-175-T-J1-PDC cell line growth inhibition [GQUAD];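 also: spheroids exposed to the agents for 7 days; 100% = DMSO vehicle control viability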
Conditions: second compound 1 µM; first compound 3.16 µM; active compounds read low
Reply with just the number (in %).

Some solved cases for reference:
INSERT INTO assay_data (compound, value_kind, unit_info, reading) VALUES
  ('CCCS(=O)(=O)Nc1ccc(F)c(C(=O)c2c[nH]c3ncc(-c4ccc(Cl)cc4)cc23)c1F + Cc1[nH]c2ccc(F)cc2c1-c1nc2c3cccnc3c3ncccc3c2[nH]1', 'viability, T/C', '%', 33.1),
  ('O=C(NO)c1cnc(N2CCN(S(=O)(=O)c3ccc4ccccc4c3)CC2)nc1 + Cc1cnc(CNC(=O)c2c(=O)c3ccc(N4CCCN(C)CC4)nc3n3c2sc2ccccc23)cn1', 'viability, T/C', '%', 19.4);

Problem: Name the reported viability, T/C value associated with the compound C=CC(=O)N1CCN(c2nc(=O)n(-c3c(C)ccnc3C(C)C)c3nc(-c4c(O)cccc4F)c(F)cc23)C(C)C1 (stereo not drawn) + CN(C)c1ccc(Nc2c3ccc(NC(=O)CCN4CCCC4)cc3nc3cc(NC(=O)CCN4CCCC4)ccc23)cc1
Result: 104

---

Reported viability, T/C values for a set of compounds
System: 997537-175-T-J1-PDC complex spheroid viability
Assay: Anticancer human tumor 997537-175-T-J1-PDC cell line growth inhibition [GQUAD];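 also: spheroids exposed to the agents for 7 days; 100% = DMSO vehicle control viability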
Conditions: second compound 10 µM; first compound 0.00316 µM; active compounds read low
Enter your answer as a number in %; do not include the unit.

INSERT INTO measurements (compound, assay_target, reading) VALUES
  ('CCc1c2c(nc3ccc(O)cc13)-c1cc3c(c(=O)n1C2)COC(=O)[C@]3(O)CC + CN(C)c1ccc(Nc2c3ccc(NC(=O)CCN4CCCC4)cc3nc3cc(NC(=O)CCN4CCCC4)ccc23)cc1', '997537-175-T-J1-PDC complex spheroid viability', 84),
  ('CC[C@@]1(O)C(=O)OCc2c1cc1n(c2=O)Cc2cc3c(CN(C)C)c(O)ccc3nc2-1 + Cc1cnc(CNC(=O)c2c(=O)c3ccc(N4CCCN(C)CC4)nc3n3c2sc2ccccc23)cn1', '997537-175-T-J1-PDC complex spheroid viability', 108);

Now consider a different compound.
Problem: State the recorded viability, T/C for this entry: Cc1[nH]c2ccccc2c1CCNCc1ccc(/C=C/C(=O)NO)cc1 + CN(C)c1ccc(Nc2c3ccc(NC(=O)CCN4CCCC4)cc3nc3cc(NC(=O)CCN4CCCC4)ccc23)cc1
Result: 56.7

---

System: 997537-175-T-J1-PDC complex spheroid viability
Assay: Anticancer human tumor 997537-175-T-J1-PDC cell line growth inhibition [GQUAD];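 also: spheroids exposed to the agents for 7 days; 100% = DMSO vehicle control viability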
Details: second compound 0.0316 µM; first compound 1 µM; active compounds read low
Source text: DNA G-quadruplex Stabilizer Agents in Combinations in Complex Spheroids A high-throughput screen of multi-cell type tumor spheroids was designed to identify active combinations of DNA G-quadruplex stabilizer agents and targeted small molecules. […] Compounds. […] If the clinical Cmax for an agent had not been determined, the highest concentration tested was 10 microM. […]
VALUE KIND: viability, T/C (%)
Please respond with the number in % and leave the unit unwritten.

INSERT INTO results (compound, unit_info, reading) VALUES
  ('O=c1[nH]cc(F)c(=O)[nH]1 + Cc1cnc(CNC(=O)c2c(=O)c3ccc(N4CCCN(C)CC4)nc3n3c2sc2ccccc23)cn1', '%', 92.8),
  ('Cc1cccc(N(C)C(=O)C2C(O)CCN2c2nc(C)cc(C(F)(F)F)c2C#N)c1 (stereo unspecified) + Cc1cnc(CNC(=O)c2c(=O)c3ccc(N4CCCN(C)CC4)nc3n3c2sc2ccccc23)cn1', '%', 97.2),
  ('CCCS(=O)(=O)Nc1ccc(F)c(C(=O)c2c[nH]c3ncc(-c4ccc(Cl)cc4)cc23)c1F + CN(C)c1ccc(Nc2c3ccc(NC(=O)CCN4CCCC4)cc3nc3cc(NC(=O)CCN4CCCC4)ccc23)cc1', '%', 78.6),
  ('CC1COCCN1c1cc(-c2ccnn2C)c2ccnc(-c3ccn[nH]3)c2n1 (stereo unspecified) + CN(C)c1ccc(Nc2c3ccc(NC(=O)CCN4CCCC4)cc3nc3cc(NC(=O)CCN4CCCC4)ccc23)cc1', '%', 43.9);

Problem: Quick one: viability, T/C for CC(C)(O)C1CCC(Nc2ccc3ncc(-c4cccc(C(F)(F)F)c4)n3n2)CC1 (stereo unspecified) + Cc1[nH]c2ccc(F)cc2c1-c1nc2c3cccnc3c3ncccc3c2[nH]1 ?
Result: 108

Problem: Form field: reported viability, T/C of Cc1cccc(N(C)C(=O)C2C(O)CCN2c2nc(C)cc(C(F)(F)F)c2C#N)c1 (stereo unspecified) + CN(C)c1ccc(Nc2c3ccc(NC(=O)CCN4CCCC4)cc3nc3cc(NC(=O)CCN4CCCC4)ccc23)cc1
Result: 80.2

Problem: Tell me the measured viability, T/C of CC1COCCN1c1cc(C2(S(C)(=N)=O)CC2)nc(-c2ccnc3[nH]ccc23)n1 (stereo unspecified) + Cc1[nH]c2ccc(F)cc2c1-c1nc2c3cccnc3c3ncccc3c2[nH]1 , please.
Result: 71.9

Problem: Which value of viability, T/C has been reported for C=CC(=O)N1CCN(c2nc(=O)n(-c3c(C)ccnc3C(C)C)c3nc(-c4c(O)cccc4F)c(F)cc23)C(C)C1 (stereo unspecified) + Cc1cnc(CNC(=O)c2c(=O)c3ccc(N4CCCN(C)CC4)nc3n3c2sc2ccccc23)cn1 in the records?
Result: 71.5

Problem: Any idea what viability, T/C was measured for COc1cc(C2c3cc4c(cc3C(OC3OC5COC(C)OC5C(O)C3O)C3COC(=O)C23)OCO4)cc(OC)c1O (stereo unspecified) + Cc1[nH]c2ccc(F)cc2c1-c1nc2c3cccnc3c3ncccc3c2[nH]1 ?
Result: 64.1

Problem: Sample C=CCn1c(=O)c2cnc(Nc3ccc(N4CCN(C)CC4)cc3)nc2n1-c1cccc(C(C)(C)O)n1 + Cc1cnc(CNC(=O)c2c(=O)c3ccc(N4CCCN(C)CC4)nc3n3c2sc2ccccc23)cn1 — what was its viability, T/C?
Result: 70.5

Problem: // query viability, T/C value for entry CCCS(=O)(=O)Nc1ccc(F)c(C(=O)c2c[nH]c3ncc(-c4ccc(Cl)cc4)cc23)c1F + Cc1cnc(CNC(=O)c2c(=O)c3ccc(N4CCCN(C)CC4)nc3n3c2sc2ccccc23)cn1
Result: 44.8
